test system: 935938-334-R-J1-PDC spheroids with HUVEC/MSC, viability; assay: Anticancer human tumor 935938-334-R-J1-PDC patient-derived small intestine adenocarcinoma cell line growth inhibition [PI3K]; conditions: curve of first compound; second compound 1 µM
Record form. Attribute: IC50. Fill in for each entry.
Please respond with the number in nM and leave the unit unwritten.

Please give the documented IC50 of CC(C)NCC(C(=O)N1CCN(c2ncnc3c2C(C)CC3O)CC1)c1ccc(Cl)cc1 (stereo not given) + CC(Nc1ccc2c(c1)OCCn1cc(N3C(=O)OCC3C(F)F)nc1-2)C(N)=O
328

Annotate the compound CC(=O)c1c(C)c2cnc(Nc3ccc(N4CCNCC4)cn3)nc2n(C2CCCC2)c1=O + Cc1nc(NC(=O)N2CCCC2C(N)=O)sc1-c1ccnc(C(C)(C)C(F)(F)F)c1 with its measured IC50.
27.8

====

Can you tell me viability, T/C for the items I'm about to list?
tested on: 935938-334-R-J1-PDC spheroids with HUVEC/MSC, viability; experiment: Anticancer human tumor 935938-334-R-J1-PDC cell line growth inhibition [PI3K]; conditions: second compound 0.0316 µM; first compound 1 µM; stronger effect = lower value;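 note: compound exposure lasted seven days before viability was read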;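 for viability, T/C: percent of vehicle DMSO treated spheroid viability so 100% = untreated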
Record the value in %, omitting the unit from your answer.

Entry CC(Cn1ccc(-c2ccc(C#N)c(Cl)c2)n1)NC(=O)c1cc(C(C)O)[nH]n1 (stereo not given) + COc1c(OCCCN2CCOCC2)ccc2c3n(c(=NC(=O)c4cnc(N)nc4)nc12)CCN3 needs its viability, T/C filled in; supply it.
79

Determine from records and report viability, T/C for CCCS(=O)(=O)Nc1ccc(F)c(C(=O)c2c[nH]c3ncc(-c4ccc(Cl)cc4)cc23)c1F + COc1c(OCCCN2CCOCC2)ccc2c3n(c(=NC(=O)c4cnc(N)nc4)nc12)CCN3
108

State, in one line, measured viability, T/C of CCN1CCN(Cc2ccc(Nc3ncc(F)c(-c4cc(F)c5nc(C)n(C(C)C)c5c4)n3)nc2)CC1 + COc1c(OCCCN2CCOCC2)ccc2c3n(c(=NC(=O)c4cnc(N)nc4)nc12)CCN3
30.3

Give viability, T/C for the following molecule: C#Cc1c(F)ccc2cc(O)cc(-c3ncc4c(N5CC6CCC(C5)N6)nc(OCC56CCCN5CC(F)C6)nc4c3F)c12 (stereo not given) + Cc1nc(NC(=O)N2CCCC2C(N)=O)sc1-c1ccnc(C(C)(C)C(F)(F)F)c1
49.4

Supply measured viability, T/C of CCCS(=O)(=O)Nc1ccc(F)c(C(=O)c2c[nH]c3ncc(-c4ccc(Cl)cc4)cc23)c1F + CC(Nc1ncnc2nc[nH]c12)c1cc2cccc(Cl)c2c(=O)n1-c1ccccc1 in your reply.
102

====

test system: 935938-334-R-J1-PDC spheroids with HUVEC/MSC, viability; experiment: Anticancer human tumor 935938-334-R-J1-PDC cell line growth inhibition [PI3K]; conditions: second compound 0.1 µM; first compound 0.01 µM; stronger effect = lower value;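 note: compound exposure lasted seven days before viability was read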;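 for viability, T/C: percent of vehicle DMSO treated spheroid viability so 100% = untreated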
I'd appreciate it if you could supply viability, T/C values for the items below.
Output spec: scalar in %, unitless text.

Complete the entry with viability, T/C for Cn1ncnc1[C@H]1c2n[nH]c(=O)c3cc(F)cc(c23)N[C@@H]1c1ccc(F)cc1 + CC(Nc1ccc2c(c1)OCCn1cc(N3C(=O)OCC3C(F)F)nc1-2)C(N)=O
79.7

Write down viability, T/C measured for item Cn1ncnc1[C@H]1c2n[nH]c(=O)c3cc(F)cc(c23)N[C@@H]1c1ccc(F)cc1 + CC(Nc1ncnc2nc[nH]c12)c1cc2cccc(Cl)c2c(=O)n1-c1ccccc1
80.2

Supply measured viability, T/C of CC(C)n1nc(-c2ccc3oc(N)nc3c2)c2c(N)ncnc21 + CC(Nc1ncnc2nc[nH]c12)c1cc2cccc(Cl)c2c(=O)n1-c1ccccc1 in your reply.
91.3

Please list viability, T/C recorded for the compound CCN1CCN(Cc2ccc(Nc3ncc(F)c(-c4cc(F)c5nc(C)n(C(C)C)c5c4)n3)nc2)CC1 + Cc1nc(NC(=O)N2CCCC2C(N)=O)sc1-c1ccnc(C(C)(C)C(F)(F)F)c1
92.2

Query viability, T/C for CC(=O)c1c(C)c2cnc(Nc3ccc(N4CCNCC4)cn3)nc2n(C2CCCC2)c1=O + CC(Nc1ccc2c(c1)OCCn1cc(N3C(=O)OCC3C(F)F)nc1-2)C(N)=O
91.3

Annotate the compound CC(=O)c1c(C)c2cnc(Nc3ccc(N4CCNCC4)cn3)nc2n(C2CCCC2)c1=O + Cc1nc(NC(=O)N2CCCC2C(N)=O)sc1-c1ccnc(C(C)(C)C(F)(F)F)c1 with its measured viability, T/C.
78.5

In one line, give reported viability, T/C of the entry CC(=O)c1c(C)c2cnc(Nc3ccc(N4CCNCC4)cn3)nc2n(C2CCCC2)c1=O + COc1c(OCCCN2CCOCC2)ccc2c3n(c(=NC(=O)c4cnc(N)nc4)nc12)CCN3 .
42

Please look at this compound and report its viability, T/C: CCN1CCN(Cc2ccc(Nc3ncc(F)c(-c4cc(F)c5nc(C)n(C(C)C)c5c4)n3)nc2)CC1 + CC(Nc1ncnc2nc[nH]c12)c1cc2cccc(Cl)c2c(=O)n1-c1ccccc1
92.6

Annotate the compound CC(=O)c1c(C)c2cnc(Nc3ccc(N4CCNCC4)cn3)nc2n(C2CCCC2)c1=O + CC(Nc1ncnc2nc[nH]c12)c1cc2cccc(Cl)c2c(=O)n1-c1ccccc1 with its measured viability, T/C.
69.5

State its viability, T/C for this compound: Cn1ncnc1[C@H]1c2n[nH]c(=O)c3cc(F)cc(c23)N[C@@H]1c1ccc(F)cc1 + COc1c(OCCCN2CCOCC2)ccc2c3n(c(=NC(=O)c4cnc(N)nc4)nc12)CCN3
47.2

Note viability, T/C for the compound shown: CCN1CCN(Cc2ccc(Nc3ncc(F)c(-c4cc(F)c5nc(C)n(C(C)C)c5c4)n3)nc2)CC1 + CC(Nc1ccc2c(c1)OCCn1cc(N3C(=O)OCC3C(F)F)nc1-2)C(N)=O
55.9

Read the entry CCN1CCN(Cc2ccc(Nc3ncc(F)c(-c4cc(F)c5nc(C)n(C(C)C)c5c4)n3)nc2)CC1 + COc1c(OCCCN2CCOCC2)ccc2c3n(c(=NC(=O)c4cnc(N)nc4)nc12)CCN3 and write its reported viability, T/C.
40.7

Indicate its recorded viability, T/C; the compound in question is CC(C)n1nc(-c2ccc3oc(N)nc3c2)c2c(N)ncnc21 + CC(Nc1ccc2c(c1)OCCn1cc(N3C(=O)OCC3C(F)F)nc1-2)C(N)=O
86.6
